test system: Leishmania donovani; assay: GSK_TCAKS: pIC50 Leishmania donovani Imaging: Amastigotes/Macrophages. Assay plates (384-well) were prepared by adding 250nL of compound to each well. For single shot assay, the final compound concentration was 5 uM. […] Automated image analysis was performed with a script developed on Acapella High Content Imaging and Analysis Software (PerkinElmer). Output: Average number of amastigotes per macrophage cell were reported for each well.; assay type: functional, organism-based, Homo sapiens; settings: THP-1
Threshold-based label: IC50 under 2000 nM gives 1, IC50 not under 2000 nM gives -1.

Here's what some known entries look like.
> print(dat)
                                   compound  assigned.class
1  CNc1nc(C)nc(N2CCc3cc(C(=O)NCc4ccc(-c5cc[nH]n5)cc4Cl)ccc32)n1               1
2  O=S(=O)(NCC(c1cccnc1)N1CCN(c2ccccc2F)CC1)c1ccc(F)cc1 (stereo not given)              -1
3  CC(C(=O)Nc1ccc(Br)cc1)N1CCN(c2ccc([N+](=O)[O-])cc2)CC1 (stereo not given)              -1
4  N#Cc1cnc(Nc2cccc(CCN3CCOCC3)c2)nc1Nc1ccccc1C(N)=O               1
5  CN(CC1CCCO1)S(=O)(=O)c1ccc(C(=O)Nc2nc(-c3ccccn3)cs2)cc1 (stereo not given)              -1

// next entry
**Query** Hello, is IC50 of the following compound strictly smaller than 2000 nM? `CS(=O)(=O)c1ccc(CC(=O)Nc2nc(-c3ccc(Cl)s3)cs2)cc1`
**Result** -1
